Taken from patent US4247712A.

Tested on: Pseudomonas aeruginosa
Assay: Utility in water and oil emulsions (3.3% cutting oil emulsions)
Type: cell-based
Settings: Week 4, 3.3% cutting oil emulsion, 28° C., weekly reinoculation, read-out: Minimum Inhibitory Concentration Range
readout: MIC

Req: Need MIC of CC(=O)C(Cl)C(=O)N(C)C (stereo not shown) [R1=CH3, R2=CH3, 2-chloro-N,N-dimethyl-3-oxobutyramide] , thanks.
Resp: 250 to 500 µg/mL

Req: Request: CCOC(=O)NC(=O)C(Cl)C(C)=O (stereo not shown) [R1=H, R2=COOC2 H5, N-Carboethoxy-2-chloroacetoacetamide]
Resp: 125 to 500 µg/mL

Req: Similarly, CC(=O)C(Cl)C(N)=O (stereo not shown) [2-Chloro-3-oxobutyramide] ?
Resp: 63 to 125 µg/mL

Req: Can you check CC(=O)NC(=O)C(Cl)C(C)=O (stereo not shown) [N-Acetyl-2-Chloro-3-oxobutyramide, N-Acetyl-2-chloro-3-oxobutyramide] next?
Resp: 125 to 500 µg/mL

====

Let's go through some recorded MIC values for Penicillium piscarium together.

Req: Which MIC value is on record for CCOC(=O)NC(=O)C(Cl)C(C)=O (stereo not shown) [R1=H, R2=COOC2 H5, N-Carboethoxy-2-chloroacetoacetamide] ?
Resp: 76.8 to 384 µg/mL

Req: Continue with CC(=O)C(Cl)C(N)=O (stereo not shown) [2-Chloro-3-oxobutyramide]
Resp: 15.3 to 76.8 µg/mL

Req: // next record CC(=O)C(Cl)C(=O)N(C)C (stereo not shown) [R1=CH3, R2=CH3, 2-chloro-N,N-dimethyl-3-oxobutyramide]
Resp: 384 to 1920 µg/mL

Req: And then CC(=O)NC(=O)C(Cl)C(C)=O (stereo not shown) [N-Acetyl-2-Chloro-3-oxobutyramide, N-Acetyl-2-chloro-3-oxobutyramide] , what is it?
Resp: 76.8 to 384 µg/mL

====

System: Pseudomonas aeruginosa
Experiment: Utility in water and oil emulsions (3.3% cutting oil emulsions)
Assay type: cell-based
Settings: Week 2, 3.3% cutting oil emulsion, 28° C., weekly reinoculation, read-out: Minimum Inhibitory Concentration Range
readout: MIC

Req: Record request: MIC value, item CC(=O)NC(=O)C(Cl)C(C)=O (stereo not shown) [N-Acetyl-2-Chloro-3-oxobutyramide, N-Acetyl-2-chloro-3-oxobutyramide]
Resp: 63 to 125 µg/mL

Req: Now consider CC(=O)C(Cl)C(N)=O (stereo not shown) [2-Chloro-3-oxobutyramide] .
Resp: 63 to 125 µg/mL

Req: Further, for CCOC(=O)NC(=O)C(Cl)C(C)=O (stereo not shown) [R1=H, R2=COOC2 H5, N-Carboethoxy-2-chloroacetoacetamide] ?
Resp: 63 to 125 µg/mL

Req: And the next one, CC(=O)C(Cl)C(=O)N(C)C (stereo not shown) [R1=CH3, R2=CH3, 2-chloro-N,N-dimethyl-3-oxobutyramide] ?
Resp: 250 to 500 µg/mL

====

System: Aspergillus niger
Assay: Utility as a cosmetic preservative (cosmetic lotion)
Format: cell-based
Settings: Week 4, 28° C., weekly reinoculation
Answer each item with its documented minimum inhibitory concentration effective in preventing microbial growth.

Req: Given CC(=O)NC(=O)C(Cl)C(C)=O (stereo not shown) [N-Acetyl-2-Chloro-3-oxobutyramide, N-Acetyl-2-chloro-3-oxobutyramide] , state its recorded minimum inhibitory concentration effective in preventing microbial growth.
Resp: 2 (500-1000 mcg/gm)

Req: Same question for CC(=O)C(Cl)C(=O)N(C)C (stereo not shown) [R1=CH3, R2=CH3, 2-chloro-N,N-dimethyl-3-oxobutyramide] please.
Resp: 1 (1000-2000 mcg/gm)

Req: Try the compound CCOC(=O)NC(=O)C(Cl)C(C)=O (stereo not shown) [R1=H, R2=COOC2 H5, N-Carboethoxy-2-chloroacetoacetamide]
Resp: 3 (250-500 mcg/gm)

Req: Next entry: CC(=O)C(Cl)C(N)=O (stereo not shown) [2-Chloro-3-oxobutyramide]
Resp: 2 (500-1000 mcg/gm)

====

Tested on: Pseudomonas aeruginosa
Test: Utility as a cosmetic preservative (cosmetic lotion)
Format: cell-based
Conditions: Week 4, 28° C., weekly reinoculation
Can you tell me minimum inhibitory concentration effective in preventing microbial growth for the items I'm about to list?

Req: Value lookup for minimum inhibitory concentration effective in preventing microbial growth; key = CC(=O)C(Cl)C(=O)N(C)C (stereo not shown) [R1=CH3, R2=CH3, 2-chloro-N,N-dimethyl-3-oxobutyramide]
Resp: 2 (500-1000 mcg/gm)

Req: Do the same for CC(=O)NC(=O)C(Cl)C(C)=O (stereo not shown) [N-Acetyl-2-Chloro-3-oxobutyramide, N-Acetyl-2-chloro-3-oxobutyramide] please
Resp: 4 (125-250 mcg/gm)

Req: Another compound: CC(=O)C(Cl)C(N)=O (stereo not shown) [2-Chloro-3-oxobutyramide]
Resp: 4 (125-250 mcg/gm)

Req: Try the compound CCOC(=O)NC(=O)C(Cl)C(C)=O (stereo not shown) [R1=H, R2=COOC2 H5, N-Carboethoxy-2-chloroacetoacetamide]
Resp: 4 (125-250 mcg/gm)
